tested on: Candida albicans; experiment: Antifungal activity against Candida albicans after 3 to 4 days by serial plate dilution method; assay type: functional; also: test concentration or dose not given here
Examples of compounds with documented diameter of the inhibition zone (DIZ) follow.
Enter your answer as a number in mm; do not include the unit.

>>> observed("COc1ccc2nc(C)cc(-n3cc(CNC4CC4)nn3)c2c1")
13
>>> observed("COc1ccc2nc(C)cc(-n3cc(CN4CCN(c5ccc(C)cc5)CC4)nn3)c2c1")
12
>>> observed("CCN(CC)Cc1cn(-c2cc(C)nc3ccc(OC)cc23)nn1")
11
>>> observed("CCN1CCN(Cc2cn(-c3cc(C)nc4ccc(OC)cc34)nn2)CC1")
12
>>> observed("COc1ccc2nc(C)cc(-n3cc(CN(C)C)nn3)c2c1")
10

Now look at this entry.
## Task Find the recorded diameter of the inhibition zone (DIZ) belonging to COc1ccc2nc(C)cc(-n3cc(CN4CCCCC4)nn3)c2c1 and report it.
## Result 10

###

test system: Aspergillus fumigatus; assay: Antifungal activity against Aspergillus fumigatus NCIM 902 after 3 to 4 days by serial plate dilution method; format: functional; settings: Aspergillus fumigatus, NCIM 902
Examples of compounds with documented MIC follow.
Enter your answer as a number in µg/mL; do not include the unit.

# annotated cases, reported MIC shown
>>> observed("COc1ccc2nc(C)cc(-n3cc(CN4CCCC4)nn3)c2c1")
12.5
>>> observed("CCN1CCN(Cc2cn(-c3cc(C)nc4ccc(OC)cc34)nn2)CC1")
6.25

## Task Find the recorded MIC belonging to COc1ccc2nc(C)cc(-n3cc(CN(C)CCN(C)C)nn3)c2c1 and report it.
## Result 6.25

## Task Another compound to check: COc1ccc2nc(C)cc(-n3cc(CN4CCN(C5CCCCC5)CC4)nn3)c2c1
## Result 50
